System: HS 578T breast
Experiment: NCI tumour cell line growth inhibition, 48 h
PARAMETER: GI50

Reference set (4 entries):
COc1ccccc1CN=C1NC(=O)/C(=C/c2ccc3ncccc3c2)S1    6.61 µM
COc1ccc(Nc2[nH]n(C3=Nc4ccccc4Sc4ccccc43)c(=O)c2C#N)cc1    1.98 µM
CCN(CC)c1ccc(CNc2cc(C)nc3ccc(OC)cc23)cc1    2.32 µM
N=C(N)c1ccc(CS(=O)(=O)F)cc1    > 100 µM

Shift focus to the following entry.
Prompt: Please look at this compound and report its GI50: C=C(C)[C@@H]1CC[C@]2(C(=O)N3CCN(C)CC3)CC[C@]3(C)[C@H](CC[C@@H]4[C@@]5(C)C/C(=C/c6ccncc6)[C@H](O)C(C)(C)[C@@H]5CC[C@]43C)[C@@H]12
Completion: 11.6 µM

----------
System: MCF7 breast
Test: NCI tumour cell line growth inhibition, 48 h
Quick list: TGI per entry.
Please state the figure in µM; there is no need to write the unit.

Consider the following illustrative entries.
CN(C)CCn1c2c(c3ccccc31)CCc1ccccc1-2    30.5
C=C(C)[C@@H]1CC[C@]2(C(=O)N3CCN(C)CC3)CC[C@]3(C)[C@H](CC[C@@H]4[C@@]5(C)C/C(=C/c6ccncc6)[C@H](O)C(C)(C)[C@@H]5CC[C@]43C)[C@@H]12    13.8
CC/C=C\C[C@H](O)C/C=C1/C(=O)C=C[C@@H]1C/C=C\CCCC(=O)OCCS(=O)(=O)c1ccccc1    18.6
O=C1C2=C(C(=O)c3c(O)ccc(O)c31)N(c1cccnc1)Cc1ccccc1O2    0.912

Prompt: Consider the molecule CC[C@]12C=CCN3CC[C@@]4(c5ccc(OC)cc5N(C)[C@H]4[C@@](O)(C(=O)OC)[C@@H]1OC(=O)CCCC[P+](c1ccccc1)(c1ccccc1)c1ccccc1)[C@@H]32 . State its measured TGI.
Completion: 5.3

Prompt: Please report TGI for the following molecule: COc1cc(-c2nn(-c3ccc(NC(=O)Nc4ccc(Cl)c(C(F)(F)F)c4)cc3)cc2-c2ccncc2)ccc1Cl
Completion: 8.28

Prompt: Indicate the recorded TGI value for this molecule: ClCCN(CC#CCCCC#CCN(CCCl)CCCl)CCCl
Completion: 37.5

Prompt: Give TGI for the following molecule: Cc1nc2ccc(F)cc2c2c1CCN2c1ccccc1
Completion: 64.7

Prompt: Note down TGI recorded for O=C1c2ccccc2-c2nc(-c3cccs3)cc3c2c1nc1ccccc13
Completion: 29.2

Prompt: Entry COc1ccc(OC)c2sc(N3C(=O)/C(=C/c4ccc(SC)cc4)N=C3c3ccccc3)nc12 needs its TGI filled in; supply it.
Completion: 48.1

----------
Tested on: SK-MEL-2 melanoma
Experiment: NCI tumour cell line growth inhibition, 48 h
PARAMETER: TGI (µM)
The reply should be a number in µM, with the unit left off.

C=C(c1ccccc1)[C@@]1(O)CCCC[C@H]1NC(c1ccccc1)c1ccccc1    27.4
CCOc1ccccc1NC(=O)CSc1nnc(Cc2ccccc2)o1    63

Here's the next entry for you.
Prompt: Respond only with TGI recorded for [O-]c1ccccc1[C-]=Nc1ccccc1O.[O-]c1ccccc1[C-]=Nc1ccccc1O.[O]=[U]=[O]
Completion: 37.3

----------
System: NCI-H23 lung
Experiment: NCI tumour cell line growth inhibition, 48 h
Item-by-item account of TGI

CC(=O)N(CN1C(=O)CCC1C(=O)O)c1ccc(C)cc1 (centres undefined)    > 100 µM
C=C(c1ccc(OC)c(/C=C/C(=O)c2cc(OC)c(OC)c(OC)c2)c1)c1cc(OC)c(OC)c(OC)c1    4.9 µM

Prompt: Give the measured TGI for Clc1cc(Cl)cc(C2SCc3nc4ccccc4n32)c1 (centres undefined)
Completion: 45.4 µM

Prompt: Name the recorded TGI of the molecule listed here: C/C(=N\NC(=O)C[n+]1ccccc1)c1sc(-c2nc(C)c(/C(C)=N/NC(=O)C[n+]3ccccc3)s2)nc1C
Completion: > 100 µM

Prompt: Provide measured TGI value, entry: N=C(N)SC(c1ccccc1)c1ccccc1
Completion: 28.3 µM

Prompt: Note down TGI recorded for Clc1ccc(C2ON=C(c3ccccc3)N2C23CC4CC(CC(C4)C2)C3)cc1Cl (centres undefined)
Completion: > 10 µM

Prompt: Note TGI for the molecule shown: Cc1nc2ccc(F)cc2c2c1CCN2c1ccccc1
Completion: 52.9 µM

Prompt: Consider the molecule CC(SC(=S)N(C)C)C(=O)Nc1nnc(-c2ccc(Cl)cc2)o1 (centres undefined) and give its recorded TGI.
Completion: > 100 µM
